Where do the numbers come from? From paper PMC8226672.

protocol: In vitro toxicity, MTT cell viability assay
Type: cell-based
runConditions: African green monkey, Vero cells (African green monkey kidney cell line), 1 to 500 µg/mL
quantity: IC50 at 48 h (µg/mL)
Answer with a number only, understood to be in µg/mL.

>  <compound>
COc1ccc(C(=O)/C=C/c2ccc(Cl)cc2)c(OC)c1OC [CH4]

>  <IC50 at 48 h [µg/mL]>
198

$$$$

Moving on to the next compound.
## Task What value of measured IC50 at 48 h is listed for COc1ccc(C(=O)/C=C/c2ccc(Br)cc2)c(OC)c1OC [CH5] ?
## Result 126

* * *

target: recombinant MAO-A (Homo sapiens)
Sequence (P21397 1-527): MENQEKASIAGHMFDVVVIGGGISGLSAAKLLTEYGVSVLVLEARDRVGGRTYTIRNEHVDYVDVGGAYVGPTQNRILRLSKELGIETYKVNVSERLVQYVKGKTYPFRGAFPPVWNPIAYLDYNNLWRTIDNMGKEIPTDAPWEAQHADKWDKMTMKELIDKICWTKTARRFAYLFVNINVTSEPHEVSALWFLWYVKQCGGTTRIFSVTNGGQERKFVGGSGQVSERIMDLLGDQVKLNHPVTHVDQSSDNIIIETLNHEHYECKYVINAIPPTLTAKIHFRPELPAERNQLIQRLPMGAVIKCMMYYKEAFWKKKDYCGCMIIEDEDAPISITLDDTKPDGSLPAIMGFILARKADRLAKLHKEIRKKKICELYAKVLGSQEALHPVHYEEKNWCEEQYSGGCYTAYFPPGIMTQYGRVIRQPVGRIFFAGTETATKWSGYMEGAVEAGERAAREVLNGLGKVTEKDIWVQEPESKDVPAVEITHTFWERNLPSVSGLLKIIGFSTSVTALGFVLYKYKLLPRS
protocol: MAO-A inhibition (recombinant enzyme, kynuramine substrate)
Format: biochemical
runConditions: at 10 µM; read-out: Residual Activity (%) MAO-A
quantity: remaining activity at 10 µM (%)
Report the value in % with no unit label.

>  <substanceSmiles>
COc1cc(OC)c(C(=O)/C=C/c2ccc(F)cc2)c(OC)c1

>  <remaining activity at 10 µM [%]>
94.9

$$$$

## Task Any idea what its remaining activity at 10 µM is? The compound is `COc1cc(OC)c(C(=O)/C=C/c2ccc(Cl)cc2)c(OC)c1`
## Result 90.1

## Task Same read-out for `COc1ccc(C(=O)/C=C/c2ccc(Cl)cc2)c(OC)c1OC` ?
## Result 63.7

## Task Likewise for `COc1cc(OC)c(C(=O)/C=C/c2ccc(Br)cc2)c(OC)c1` ?
## Result 92.4

## Task Can you check `COc1ccc(C(=O)/C=C/c2ccc(F)cc2)c(OC)c1OC` next?
## Result 92.1

## Task Further, for `COc1ccc(C(=O)/C=C/c2ccc(Br)cc2)c(OC)c1OC` ?
## Result 66.7

* * *

target: MAO-B (Homo sapiens, UniProt P27338)
Sequence (P27338 1-520): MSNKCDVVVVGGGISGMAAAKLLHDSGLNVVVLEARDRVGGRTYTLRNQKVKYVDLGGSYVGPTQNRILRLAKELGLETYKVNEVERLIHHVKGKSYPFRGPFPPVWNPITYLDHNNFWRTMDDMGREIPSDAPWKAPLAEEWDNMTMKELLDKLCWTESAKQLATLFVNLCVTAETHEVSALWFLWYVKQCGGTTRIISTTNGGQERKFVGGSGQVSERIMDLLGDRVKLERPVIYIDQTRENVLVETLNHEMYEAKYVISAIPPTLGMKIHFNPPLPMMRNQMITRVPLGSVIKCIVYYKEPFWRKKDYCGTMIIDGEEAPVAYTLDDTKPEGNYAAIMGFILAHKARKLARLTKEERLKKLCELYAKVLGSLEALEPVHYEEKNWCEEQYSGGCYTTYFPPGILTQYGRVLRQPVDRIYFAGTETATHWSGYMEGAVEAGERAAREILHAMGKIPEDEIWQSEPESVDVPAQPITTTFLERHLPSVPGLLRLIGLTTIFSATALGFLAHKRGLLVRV
protocol: MAO-B inhibition (recombinant enzyme, benzylamine substrate)
Assay type: biochemical
runConditions: at 10 µM; read-out: Residual Activity (%) MAO-B
quantity: remaining activity at 10 µM (%)
Please reply with the bare figure in % and do not write the unit itself.

Worked set:
>  <substanceSmiles>
COc1cc(OC)c(C(=O)/C=C/c2ccc(F)cc2)c(OC)c1

>  <resultUnit>
%

>  <remaining activity at 10 µM>
75.4

$$$$
>  <substanceSmiles>
COc1ccc(C(=O)/C=C/c2ccc(F)cc2)c(OC)c1OC

>  <resultUnit>
%

>  <remaining activity at 10 µM>
19.6

$$$$
>  <substanceSmiles>
COc1cc(OC)c(C(=O)/C=C/c2ccc(Cl)cc2)c(OC)c1

>  <resultUnit>
%

>  <remaining activity at 10 µM>
70.7

$$$$

The record that follows has no remaining activity at 10 µM shown yet.
## Task Give its remaining activity at 10 µM value. Item: `COc1cc(OC)c(C(=O)/C=C/c2ccc(Br)cc2)c(OC)c1`
## Result 84.3
